# System: Escherichia coli TOP10
# experiment: shrunken log2 fold change of peptide-encoding DNA abundance (4.5 h post-induction vs induction); higher = less antimicrobial activity (less host growth inhibition)
# measurement_setup: time post-induction: 4.5 h; library: site-saturation at positions 5, 18, 19, 20
measurement_name: shrunken log2 fold change
# print the numeric value only

Sample records with shrunken log2 fold change:
RRIRPRPPRLPRPRPRPQWGPRP	0.132
RRIRWRPPRLPRPRPRPTHTPRP	-0.252
RRIRLRPPRLPRPRPRPEGKPRP	-0.00133

Challenge: Give its shrunken log2 fold change value. Item: "RRIRGRPPRLPRPRPRPIIFPRP"
Response given: 0.437

Challenge: Give its shrunken log2 fold change value. Item: "RRIRVRPPRLPRPRPRPKIWPRP"
Response given: 0.0958

Challenge: Give its shrunken log2 fold change value. Item: "RRIRRRPPRLPRPRPRPWDCPRP"
Response given: -0.033

Challenge: Give its shrunken log2 fold change value. Item: "RRIRTRPPRLPRPRPRPTQTPRP"
Response given: -0.0408

Challenge: Give its shrunken log2 fold change value. Item: "RRIRERPPRLPRPRPRPEAEPRP"
Response given: 0.315

Challenge: Give its shrunken log2 fold change value. Item: "RRIRHRPPRLPRPRPRPEYCPRP"
Response given: -0.201

Challenge: Give its shrunken log2 fold change value. Item: "RRIRFRPPRLPRPRPRPRHVPRP"
Response given: -0.0276

Challenge: Give its shrunken log2 fold change value. Item: "RRIRCRPPRLPRPRPRPDAYPRP"
Response given: -0.177

Challenge: Give its shrunken log2 fold change value. Item: "RRIRERPPRLPRPRPRPQKQPRP"
Response given: -0.0621

Challenge: Give its shrunken log2 fold change value. Item: "RRIRSRPPRLPRPRPRPIWLPRP"
Response given: 0.222

Challenge: Give its shrunken log2 fold change value. Item: "RRIRDRPPRLPRPRPRPGRGPRP"
Response given: 0.725

---

# System: Escherichia coli TOP10;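 also: peptides expressed intracellularly from a pBAD plasmid library in pooled LB shake-flask culture, induced with 0.3% L-arabinose, DNA abundance read by NGS, three biological replicates, DESeq2 with apeglm shrinkage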
# experiment: shrunken log2 fold change of peptide-encoding DNA abundance (4.5 h post-induction vs induction); higher = less antimicrobial activity (less host growth inhibition)
# measurement_setup: time post-induction: 4.5 h; library: site-saturation at positions 5, 18, 19, 20
Use shrunken log2 fold change to assign classes; range list: lowest (below -0.04), middle (-0.04 to below 0.2), highest (0.2 or more)

Consider the worked cases shown below.
RRIRVRPPRLPRPRPRPMARPRP	middle
RRIRWRPPRLPRPRPRPYFHPRP	lowest
RRIRNRPPRLPRPRPRPYSWPRP	lowest
RRIRFRPPRLPRPRPRPKAYPRP	lowest
RRIRNRPPRLPRPRPRPVKCPRP	middle
RRIRKRPPRLPRPRPRPRSIPRP	middle
RRIRVRPPRLPRPRPRPLEVPRP	middle
RRIRFRPPRLPRPRPRPVEPPRP	lowest

Challenge: Hi, small favor: classify "RRIRGRPPRLPRPRPRPDNDPRP" by its shrunken log2 fold change when you get a moment.
Response given: middle

Challenge: Hi, small favor: classify "RRIRHRPPRLPRPRPRPWSHPRP" by its shrunken log2 fold change when you get a moment.
Response given: middle

Challenge: Hi, small favor: classify "RRIRFRPPRLPRPRPRPKHIPRP" by its shrunken log2 fold change when you get a moment.
Response given: lowest

Challenge: Hi, small favor: classify "RRIRARPPRLPRPRPRPIATPRP" by its shrunken log2 fold change when you get a moment.
Response given: highest

Challenge: Hi, small favor: classify "RRIRPRPPRLPRPRPRPCDRPRP" by its shrunken log2 fold change when you get a moment.
Response given: middle

Challenge: Hi, small favor: classify "RRIRVRPPRLPRPRPRPQFLPRP" by its shrunken log2 fold change when you get a moment.
Response given: middle

Challenge: Hi, small favor: classify "RRIRLRPPRLPRPRPRPPRYPRP" by its shrunken log2 fold change when you get a moment.
Response given: middle

Challenge: Hi, small favor: classify "RRIRYRPPRLPRPRPRPRSVPRP" by its shrunken log2 fold change when you get a moment.
Response given: lowest

Challenge: Hi, small favor: classify "RRIRFRPPRLPRPRPRPVGRPRP" by its shrunken log2 fold change when you get a moment.
Response given: highest

Challenge: Hi, small favor: classify "RRIRRRPPRLPRPRPRPRIEPRP" by its shrunken log2 fold change when you get a moment.
Response given: highest

Challenge: Hi, small favor: classify "RRIRLRPPRLPRPRPRPLMRPRP" by its shrunken log2 fold change when you get a moment.
Response given: highest

Challenge: Hi, small favor: classify "RRIRLRPPRLPRPRPRPAAQPRP" by its shrunken log2 fold change when you get a moment.
Response given: highest

Data credit: the supplement of paper PMC9112550
